# studyTarget: AAV vector (AAV5-EGFP), adeno-associated virus serotype 5 (adeno-associated virus serotype 5 (AAV5))
# procedureSummary: ELISA, AAV5-EGFP coated, culture supernatant, anti-6His, A450
observationType: Binding activity for AAV5 (vs AVR10s) (ratio (AVR10s = 1))

binder: AVR10s_Y331C (receptor) MGSAGESDQITLPKNEVQLNACVLQEPPKGETSTYDWQLITHPRDYSGEMEGEHSQILKLSNLTPGLYEFKAVVEGQNAHSEGYVNVTVEPEPRKNRPPIAIVSPQFQEISLPTTSTVIDGSQSTDDDKIVQYHWEELKGPLREEKISEDTAILKLSKLVPGNYTFRLTVVDSDGATDSTTANLTVNKAVDHHHHHH
endpointResult: 1.3

binder: AVR10s_Q347S (receptor) MGSAGESDQITLPKNEVQLNAYVLQEPPKGETSTYDWSLITHPRDYSGEMEGEHSQILKLSNLTPGLYEFKAVVEGQNAHSEGYVNVTVEPEPRKNRPPIAIVSPQFQEISLPTTSTVIDGSQSTDDDKIVQYHWEELKGPLREEKISEDTAILKLSKLVPGNYTFRLTVVDSDGATDSTTANLTVNKAVDHHHHHH
endpointResult: 1.73

// query Fill in the blank: the reported Binding activity for AAV5 (vs AVR10s) (ratio (AVR10s = 1)) of AVR10s_V332W (receptor) MGSAGESDQITLPKNEVQLNAYWLQEPPKGETSTYDWQLITHPRDYSGEMEGEHSQILKLSNLTPGLYEFKAVVEGQNAHSEGYVNVTVEPEPRKNRPPIAIVSPQFQEISLPTTSTVIDGSQSTDDDKIVQYHWEELKGPLREEKISEDTAILKLSKLVPGNYTFRLTVVDSDGATDSTTANLTVNKAVDHHHHHH is ____.
// result 3.87
